System: HOP-92
assay_protocol: NCI tumour cell line growth inhibition, 48 h
The source made the active and inactive calls. No stated cut-off is given here; in the data, active = GI50 up to about 1.1 µM and inactive = higher.
outcome_measure: GI50

The examples below pair each entry with its known result.
[[record]]
compound = "CC[C@@]1(O)C(=O)OCc2c1cc1n(c2=O)Cc2c-1nc1ccccc1c2/C=N\\NC(=O)C(N)CO (some centres undefined)"
outcome_measure = "GI50"
value_measured = "1.87 µM (inactive)"

[[record]]
compound = "NCCCNCCSP(=O)(O)O"
outcome_measure = "GI50"
value_measured = "> 750 µM (inactive)"

[[record]]
compound = "c1ccc(/N=C2\\c3ccsc3/C(=N/c3ccccc3)c3ccsc32)cc1"
outcome_measure = "GI50"
value_measured = "2.61 µM (inactive)"


Below is a list of compounds. For each, state its recorded GI50.
1. CCOP(=O)(OCC)/C(C#N)=C/c1ccc(-c2cc(C(F)(F)F)cc(C(F)(F)F)c2)o1
2. N[C@H]1CCCC[C@@H]1N1C(=O)c2ccccc2C1(O)c1ccc(Cl)cc1 (some centres undefined)
3. CN(Cc1ccccc1)/C(=N\C#N)N(Cc1ccccc1)Cc1ccccc1

1. 8.41 µM (inactive)
2. 10.3 µM (inactive)
3. 16.9 µM (inactive)
